Biological target: Zta (BZLF1:Strep/FLAG) (Epstein-Barr virus, UniProt P03206 149-245)
Sequence (P03206 149-245): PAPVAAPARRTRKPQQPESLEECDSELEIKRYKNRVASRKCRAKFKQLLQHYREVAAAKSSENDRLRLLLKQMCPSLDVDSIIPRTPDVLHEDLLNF
Assay: EMSA; apparent, Hill fit; […]; pH and temperature not stated
Conditions: protein: recombinant; tags: tandem StrepII/FLAG; chain copies: 2; label: 32P 5' end; blunt
experimental readout: log10(Kd) (log10 of the value in nM)
Field: value | Transform: log10 | Quantity: Kd | Unit: nM

Request: // Input: BBLF4 ZRE A (dsDNA) DNA 1: ATGACTCGTGTGCGAGCCGGTTTCG DNA 2: CGAAACCGGCTCGCACACGAGTCAT . Output its log10(Kd) only.
Response: 2.34

Request: // Input: BBLF4 meZRE A (dsDNA, 5mC at position 13 of strand 1; bottom-strand methylation not shown in material) DNA 1: ATGACTCGTGTGCGAGCCGGTTTCG DNA 2: CGAAACCGGCTCGCACACGAGTCAT . Output its log10(Kd) only.
Response: 1.21

Request: // Input: BRLF1 ZRE3 (dsDNA) DNA 1: CAGTCAAAATTCGCGATGCTATAAA DNA 2: TTTATAGCATCGCGAATTTTGACTG . Output its log10(Kd) only.
Response: 3.08

Request: // Input: BBLF4 ZRE B (dsDNA) DNA 1: CTCTCCTATGAGCGTTATGTGGACT DNA 2: AGTCCACATAACGCTCATAGGAGAG . Output its log10(Kd) only.
Response: 2.68

Request: // Input: BMLF1 ZRE AP-1 (dsDNA) DNA 1: GCGAAGCACTGACTCATGAAGGTGA DNA 2: TCACCTTCATGAGTCAGTGCTTCGC . Output its log10(Kd) only.
Response: 1.61

Request: // Input: BHLF1 ZRE2 (dsDNA) DNA 1: TTTAAGGTTTGCTCAGGAGTGGGG DNA 2: CCCCACTCCTGAGCAAACCTTAAA . Output its log10(Kd) only.
Response: 1.96
